- EXPERIMENTAL_SYSTEM: δ opioid receptor (Homo sapiens)
- Construct: host or cells: HEK293, stably transfected; membranes
- Sequence (P41143 whole entry): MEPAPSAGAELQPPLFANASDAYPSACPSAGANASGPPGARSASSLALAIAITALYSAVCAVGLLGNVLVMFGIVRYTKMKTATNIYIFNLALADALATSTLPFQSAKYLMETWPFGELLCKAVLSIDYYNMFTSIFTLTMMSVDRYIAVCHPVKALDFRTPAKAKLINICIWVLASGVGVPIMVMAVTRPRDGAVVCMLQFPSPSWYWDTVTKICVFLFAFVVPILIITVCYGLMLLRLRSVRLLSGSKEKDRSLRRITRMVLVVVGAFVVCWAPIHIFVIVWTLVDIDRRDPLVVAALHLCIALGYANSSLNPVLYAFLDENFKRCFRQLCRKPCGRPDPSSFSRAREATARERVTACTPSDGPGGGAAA
- ASSAY_NAME: Competitive radioligand binding assay, δ opioid
- EXPERIMENTAL_CONDITIONS: Δ Ki ± SEM, NA = not active
READOUT_NAME: pKi
// pKi here means minus log10 of the molar concentration (mol/L)

Lab book: pKi of C[C@H]1CC[C@H]2[C@H](C1)c1c(O)cc(/C=C/c3ccccc3O)cc1OC2(C)C noted as 4.77

----------
- EXPERIMENTAL_SYSTEM: μ opioid receptor (Homo sapiens, UniProt P35372)
- Construct: host or cells: HEK293, stably transfected; membranes
- Sequence (P35372 whole entry): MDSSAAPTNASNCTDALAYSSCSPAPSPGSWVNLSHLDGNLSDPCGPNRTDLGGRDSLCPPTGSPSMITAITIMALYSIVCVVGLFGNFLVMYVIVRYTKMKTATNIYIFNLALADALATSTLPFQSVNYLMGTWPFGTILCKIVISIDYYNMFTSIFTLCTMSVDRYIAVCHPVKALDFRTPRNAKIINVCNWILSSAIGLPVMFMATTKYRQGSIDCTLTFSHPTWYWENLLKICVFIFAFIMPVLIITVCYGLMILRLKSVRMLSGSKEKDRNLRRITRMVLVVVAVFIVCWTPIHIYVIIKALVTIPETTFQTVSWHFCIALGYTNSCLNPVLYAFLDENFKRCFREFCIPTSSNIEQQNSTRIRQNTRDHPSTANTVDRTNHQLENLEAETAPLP
- ASSAY_NAME: biochemical
- Assay type: binding
- EXPERIMENTAL_CONDITIONS: 10 μM; [3H]-DAMGO
READOUT_NAME: Percent displacement, µ (%)
# unit: % | format: bare number

>  <MOLECULAR_STRING>
C[C@H]1CC[C@H]2[C@H](C1)c1c(O)cc(/C=C/c3ccccc3)cc1OC2(C)C

>  <UNITS>
%

>  <Percent displacement, µ>
52.9

$$$$
>  <MOLECULAR_STRING>
C=C(C)[C@H]1CC[C@H](C)C[C@@H]1c1c(O)cc(/C=C/c2ccccc2O)cc1O

>  <UNITS>
%

>  <Percent displacement, µ>
27.6

$$$$
>  <MOLECULAR_STRING>
C=C(C)[C@H]1CC[C@H](C)C[C@@H]1c1c(O)cc(/C=C/c2ccccc2)cc1O

>  <UNITS>
%

>  <Percent displacement, µ>
45.6

$$$$
>  <MOLECULAR_STRING>
C[C@H]1CC[C@H]2[C@H](C1)c1c(O)cc(-c3cc4ccccc4o3)cc1OC2(C)C

>  <UNITS>
%

>  <Percent displacement, µ>
37.6

$$$$
>  <MOLECULAR_STRING>
C[C@@H]1C[C@@H]2c3c(O)cc(-c4cc5ccccc5o4)cc3OC(C)(C)[C@H]2C[C@H]1O

>  <UNITS>
%

>  <Percent displacement, µ>
16.8

$$$$

The reported value for C=C(C)[C@H]1CC[C@H](C)C[C@@H]1c1c(O)cc(-c2cc3ccccc3o2)cc1O in terms of Percent displacement, µ is 31.7

----------
- System: Hedgehog
- ASSAY_NAME: Luciferase reporter assay, Hedgehog, HeLa
- Assay type: cell-based, human
- EXPERIMENTAL_CONDITIONS: Homo sapiens; HeLa cells; inducer PMA; dash: not inhibited by more than 40% at 50 µmol/L
pIC50: −log10 of the molar value.
Param threshold (5) applies to pIC50; output 1 when value >= threshold, 0 when value < threshold.

Use the examples below as a reference point.
>  <MOLECULE>
C[C@@H]1C[C@@H]2c3c(O)cc(-c4cc5ccccc5o4)cc3OC(C)(C)[C@H]2C[C@H]1O

>  <ASSIGNED_CLASS>
0

$$$$
>  <MOLECULE>
C=C(C)[C@H]1CC[C@H](C)C[C@@H]1c1c(O)cc(/C=C/c2ccccc2O)cc1O

>  <ASSIGNED_CLASS>
0

$$$$
>  <MOLECULE>
C[C@H]1CC[C@H]2[C@H](C1)c1c(O)cc(-c3cc4ccccc4o3)cc1OC2(C)C

>  <ASSIGNED_CLASS>
1

$$$$

Now for a further molecule.
Is pIC50 for C=C(C)[C@@H]1CCC(C)=C[C@H]1c1c(O)cc(CCCCC)cc1O [compound 9, cannabidiol, reference compound] at or above 5?
1
